- target-entity: His-Tagged hOGA (Homo sapiens)
- Sequence (O60502 whole entry): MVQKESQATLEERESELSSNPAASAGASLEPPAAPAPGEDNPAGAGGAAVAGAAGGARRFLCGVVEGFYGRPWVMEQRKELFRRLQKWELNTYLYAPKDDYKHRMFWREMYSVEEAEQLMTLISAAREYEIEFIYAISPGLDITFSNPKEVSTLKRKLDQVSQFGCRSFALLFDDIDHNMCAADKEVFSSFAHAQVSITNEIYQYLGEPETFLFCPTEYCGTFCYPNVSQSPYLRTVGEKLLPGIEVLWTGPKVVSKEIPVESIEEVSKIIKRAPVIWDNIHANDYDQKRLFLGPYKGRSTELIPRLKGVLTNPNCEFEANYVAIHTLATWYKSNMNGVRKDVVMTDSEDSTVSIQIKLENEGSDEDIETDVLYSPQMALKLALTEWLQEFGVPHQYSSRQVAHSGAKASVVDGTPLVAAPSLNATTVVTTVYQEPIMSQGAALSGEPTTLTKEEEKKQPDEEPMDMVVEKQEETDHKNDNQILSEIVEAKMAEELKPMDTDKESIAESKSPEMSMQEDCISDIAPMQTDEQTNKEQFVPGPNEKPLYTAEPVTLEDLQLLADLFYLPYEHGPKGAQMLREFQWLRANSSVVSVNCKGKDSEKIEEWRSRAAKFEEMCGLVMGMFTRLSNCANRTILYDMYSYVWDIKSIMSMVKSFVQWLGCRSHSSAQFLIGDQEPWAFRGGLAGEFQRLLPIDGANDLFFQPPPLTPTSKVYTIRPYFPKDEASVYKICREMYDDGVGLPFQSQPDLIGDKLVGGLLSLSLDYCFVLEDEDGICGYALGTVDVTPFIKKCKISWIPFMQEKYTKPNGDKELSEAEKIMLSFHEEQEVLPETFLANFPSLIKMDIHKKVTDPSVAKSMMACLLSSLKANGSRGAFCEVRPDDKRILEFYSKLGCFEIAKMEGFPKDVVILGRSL
- experimental-details: Human O-GlcNAcase enzyme inhibition assay
- Format: biochemical
- conditions-used: 20 nM His-Tagged hOGA, 10 μM FL-GlcNAc, pH 6.5, 60 min; read-out: hOGA enzyme inhibition (IC50)
- Description: The following reaction components were added to a final volume of 10 μL in Mcllvaine's Buffer (pH 6.5): 20 nM His-Tagged hOGA and 10 μM Fluorescein mono-beta-D-(2-deoxy-2-N-acetyl) glucopyranoside (FL-GlcNAc; Marker Gene Technologies Inc, Part # M1485). […] The amount of fluorescence measured was plotted against the concentration of inhibitor to produce a sigmoidal dose response curve, from which an IC50 was calculated.
pIC50: −log10 of the molar value.
# maps each entry to its pIC50
attribute-measured: pIC50

- CC(=O)N(C)c1ncc(CN2CCC(c3ccccc3)CC2)s1: 5.00 to 6.00
- CC(=O)Nc1ncc(CN2CCC(c3ccc(F)cc3)CC2)s1: 6.00 to 6.70
- CCCNc1ncc(CN2CCC(c3ccccc3)CC2)s1: < 5.00
- CC(=O)Nc1ncc(CN2CCC(Cc3ccccc3)C(C)C2)s1 (stereo not drawn): > 6.70
- CS(=O)(=O)Nc1ncc(CN2CCC(c3ccccc3)CC2)s1: < 5.00
- CC(=O)Nc1ncc(CN2CCC(c3ccccc3F)CC2)s1: 6.00 to 6.70
- CC(=O)Nc1ncc(CN2CCC(c3ccc(C)cc3)CC2)s1: > 6.70
- CNC(=O)Nc1ncc(CN2CCC(c3ccccc3)CC2)s1: 5.00 to 6.00
- CC(=O)Nc1ncc(CN2CCC(c3ccc(C#N)cc3)CC2)s1: 6.00 to 6.70
- COC(=O)Nc1ncc(CN2CCC(c3ccccc3)CC2)s1: 5.00 to 6.00
- C=CC(=O)Nc1ncc(CN2CCC(c3ccccc3)CC2)s1: 5.00 to 6.00
- CC(=O)Nc1ncc(CN2CCC(c3cccc(O)c3)CC2)s1: 6.00 to 6.70
- CC(=O)Nc1ncc(CN2CCC(c3cccc(C)c3)CC2)s1: > 6.70
- CCc1ncc(CN2CCC(c3ccccc3)CC2)s1: < 5.00
- CC(=O)Nc1ncc(CN2CCC(F)(c3ccccc3)CC2)s1: 5.00 to 6.00
